Test system: Trypanosoma cruzi
Experiment: Trypanocidal activity against Trypanosoma cruzi Y blood stream trypomastigotes after 24 hrs
Assay type: functional, organism-based
pIC50: −log10 of the molar value.
measurement.type: pIC50

INSERT INTO results (compound, assay_system, censoring_sign, numeric_result) VALUES
  ('CC1(C)OC2=C(C(=O)C(=O)c3ccccc32)C1Nc1ccc(Br)cc1 (stereo not drawn)', 'Trypanosoma cruzi', '=', 3.02),
  ('CC1(C)CC2=C(O1)C1(CO1)c1ccccc1C2=O (stereo not drawn)', 'Trypanosoma cruzi', '<', 2.40),
  ('CC1(C)CC(Nc2ccccc2)C2=C(O1)C(=O)c1ccccc1C2=O (stereo not drawn)', 'Trypanosoma cruzi', '=', 3.47),
  ('CC1(C)OC2=C(C(=O)c3ccccc3C2=O)C1N=[N+]=[N-] (stereo not drawn)', 'Trypanosoma cruzi', '=', 3.75),
  ('CC(C)=CCC1=C(O)C(=O)c2ccccc2C1=O', 'Trypanosoma cruzi', '=', 3.39),
  ('CC1(C)OC2=C(C(=O)C(=O)c3ccccc32)C1Nc1ccc(Cl)cc1 (stereo not drawn)', 'Trypanosoma cruzi', '=', 3.42),
  ('CC1(C)OC2=C(C(=O)C(=O)c3ccccc32)C1Nc1cccc(F)c1 (stereo not drawn)', 'Trypanosoma cruzi', '<', 2.40),
  ('COc1ccc(NC2C3=C(OC2(C)C)c2ccccc2C(=O)C3=O)cc1 (stereo not drawn)', 'Trypanosoma cruzi', '=', 4.05),
  ('CC1(C)OC2=C(C(=O)C(=O)c3ccccc32)C1Nc1ccc([N+](=O)[O-])cc1 (stereo not drawn)', 'Trypanosoma cruzi', '=', 3.07),
  ('CC1(C)OC2=C(C(=O)c3ccccc3C2=O)C1Nc1ccccc1 (stereo not drawn)', 'Trypanosoma cruzi', '<', 2.40),
  ('CC1(C)OC2=C(C(=O)C(=O)c3ccccc32)C1Nc1cccc([N+](=O)[O-])c1 (stereo not drawn)', 'Trypanosoma cruzi', '=', 4.06),
  ('CC1(C)CCC2=C(O1)C(=O)c1ccccc1C2=O', 'Trypanosoma cruzi', '<', 2.32),
  ('CC1(C)CC2=C(O1)C(=O)c1ccccc1C2=O', 'Trypanosoma cruzi', '<', 2.32),
  ('CC1(C)OC2=C(C(=O)C(=O)c3ccccc32)C1O (stereo not drawn)', 'Trypanosoma cruzi', '=', 3.67),
  ('CC1(C)OC2=C(C(=O)C(=O)c3ccccc32)C1Nc1ccc(F)cc1 (stereo not drawn)', 'Trypanosoma cruzi', '=', 2.60),
  ('Cc1ccc(C)c(NC2C3=C(OC2(C)C)c2ccccc2C(=O)C3=O)c1 (stereo not drawn)', 'Trypanosoma cruzi', '=', 2.76),
  ('CC1(C)OC2=C(C(=O)C(=O)c3ccccc32)C1Nc1cccc(Cl)c1 (stereo not drawn)', 'Trypanosoma cruzi', '=', 3.48),
  ('CC1(C)OC2=C(C(=O)C(=O)c3ccccc32)C1Nc1cccc(Br)c1 (stereo not drawn)', 'Trypanosoma cruzi', '=', 3.85);
